Data origin, for the record: patent US10414778B2

Tested on: MCF-7 cells
Experiment: MTT in vitro growth inhibition assay, MCF-7
Type: cell-based, human
Conditions: Homo sapiens, MCF7, Table 4, 48-hour treatment, mean and standard deviation, two independent experiments, read-out: MCF-7 Cell Viability GI50
Entries and their GI50 values follow.
Provide the reading as a plain figure in µM.

cpd_smiles	GI50 (µM)
COc1cc2c(cc1OCc1ccccc1)[C@@]13C=CC(=O)C[C@@H]1[N@](CC3)C2	16.8

In the following, a different compound is considered.
Which GI50 is listed for O=C1C=C[C@]23CC[N@](Cc4c2sc2ccccc42)[C@H]3C1 ?
4.7

====

Tested on: MCF-7 cells
Assay: MTT in vitro growth inhibition assay, MCF-7
Type: cell-based, human
Conditions: Homo sapiens, MCF7, Table 4, 48-hour treatment, mean and standard deviation, two independent experiments, read-out: MCF-7 Cell Viability GI50
Reported GI50 values follow for various molecules
Express your answer in µM, writing the number without its unit.

GET /values?readout=GI50&system=MCF-7 cells&item= O=C1C=C[C@]23CC[N@](Cc4cc(OCc5ccccc5)ccc42)[C@H]3C1
14.4

Give recorded GI50 with MCF-7 cells for the following molecule: O=C1C=C[C@]23CC[N@](Cc4cscc42)[C@H]3C1
43.6

State its GI50 on MCF-7 cells: O=C1C=C[C@]23CC[N@](Cc4c2ccc2c4OCO2)[C@H]3C1
72.5

Missing value: GI50, MCF-7 cells, entry O=C1C=C[C@]23CC[N@](Cc4cc5c(cc42)OCO5)[C@H]3C1 . Fill in?
23.9
